Below are IC50 values recorded for Full length EN PA (influenza endonuclease) (Influenza A virus).

Past entries and their recorded results:
{"columns": ["compound", "outcomeMeasure", "testValue"],
 "data": [
  ["CC(C)C(=O)Oc1c2n(ncc1=O)[C@@H](C1c3ccccc3CCc3ccccc31)CN(C(C)C)C2=O [Compound 23]", "IC50", "< 250 nM"],
  ["CCCN1C[C@H](C2c3cccc(F)c3CCc3c(F)cccc32)n2ncc(=O)c(OC(C)=O)c2C1=O [Compound 29]", "IC50", "< 250 nM"],
  ["CCCN1C[C@H](C(c2cccc(Cl)c2)c2cccc(Cl)c2)n2ncc(=O)c(OC(C)=O)c2C1=O [Compound 54]", "IC50", "< 250 nM"]
]}

Next:
Problem: So what IC50 did CC(=O)Oc1c2n(ncc1=O)[C@@H](C1c3cccc(F)c3CCc3c(F)cccc31)CN(C(C)C)C2=O [Compound 3] get with Full length EN PA (influenza endonuclease) (Influenza A virus)?
Solution: < 250 nM
